Tested on: S. aureus SK 23390
METHOD_DESCRIPTION: MIC in vitro (Table 1), S. aureus SK 23390
Type: cell-based
CONDITION_SUMMARY: Staphylococcus aureus, SK23390
Binary label based on MIC with cut-off 0.8 µg/mL: below gives satisfied, not below gives not satisfied.

Sample answers from the record:
CNC(=O)Cn1nnnc1SCC1=C(C(=O)O)N2C(=O)C(NC(=O)[C@H](O)c3ccccc3)[C@H]2SC1 (some centres unmarked)	not satisfied
NC(=O)CCn1nnnc1SCC1=C(C(=O)O)N2C(=O)C(NC(=O)[C@H](O)c3ccccc3)[C@H]2SC1 (some centres unmarked)	satisfied
CN(C)C(=O)Cn1nnnc1SCC1=C(C(=O)O)N2C(=O)C(NC(=O)[C@H](N)c3ccc(O)cc3)C2SC1 (some centres unmarked)	not satisfied
NC(=O)CCCCCn1nnnc1SCC1=C(C(=O)O)N2C(=O)C(NC(=O)[C@H](O)c3ccccc3)[C@H]2SC1 (some centres unmarked)	satisfied
O=C(O)Cn1nnnc1SCC1=C(C(=O)O)N2C(=O)C(NC(=O)[C@H](O)c3ccccc3)[C@H]2SC1 (some centres unmarked)	not satisfied

Does the reported MIC of the following molecule sit strictly below 0.8 µg/mL? NC(=O)Cn1nnnc1SCC1=C(C(=O)O)N2C(=O)C(NC(=O)CSC(F)(F)F)[C@H]2SC1 (some centres unmarked)
satisfied

Does the reported MIC of the following molecule sit strictly below 0.8 µg/mL? O=C(O)CCCn1nnnc1SCC1=C(C(=O)O)N2C(=O)C(NC(=O)[C@H](O)c3ccccc3)[C@H]2SC1 (some centres unmarked)
satisfied
